The reported numbers originate from paper PMC10235067.

- methodSummary: Gemcitabine urine pharmacokinetics (renal excretion) in Slc28a1+/+ and Slc28a1-/- mice
- particulars: mouse, urine, intravenous, 50 mg/kg, Cp (Gemcitabine), Figure 5 G, H, I; WT mice, 5 Minutes, individual mice
Where a name gives a salt, the structure may show the parent alone.
metricName: concentration at 5 min (µg/mL)

Nc1ccn([C@@H]2O[C@H](CO)[C@@H](O)C2(F)F)c(=O)n1 [dFdC, Gemcitabine hydrochloride, reference compound]    447

* * *

- methodSummary: Gemcitabine urine pharmacokinetics (renal excretion) in Slc28a1+/+ and Slc28a1-/- mice
- particulars: mouse, urine, intravenous, 50 mg/kg, Cp (dFdU), Figure 5 G, H, I; KO mice, 10 Minutes, individual mice
metricName: concentration at 10 min

O=c1ccn([C@@H]2O[C@H](CO)[C@@H](O)C2(F)F)c(=O)[nH]1 [dFdU, 2′,2′-difluorodeoxyuridine]    239 ng/mL
